# methodNotes: Toxicity liver stage against HepG2, at 10uM
# Type: cell-based
# Set-up: test concentration 10 uM, cell line HepG2-A16-CD81EGFP
# runParameters: human, HepG2-A16-CD81EGFP cells; read-out: INHIBITION
measuredParameter: cytotoxicity at 10 µM (%)
Give bare numbers, in %.

Below are worked cases with known answers.
compound | cytotoxicity at 10 µM (%)
CC(C)NC(=O)N[C@H]1C[C@@H](c2nc(-c3ccc(F)cc3)no2)N(C)C1 | -7.97
N#CC1(NC(=O)c2cc(Cl)ccc2OC(F)F)CCOCC1 | 7.48
COc1ccccc1CNc1ncc(-c2cc(C)no2)c(C(C)C)n1 | 8.49
N#Cc1cccc(CNc2ccc(F)cc2OCCO)c1 | -2.03
COc1ccc(CNC(=O)NCC(O)(c2cccs2)C2CC2)cc1 (stereo unspecified) | 0.227

Lab note: each compound below needs its cytotoxicity at 10 µM filled in.
1. CCOCC(=O)N1CCC[C@]2(C[C@@H](OCc3ccncc3)CO2)C1
2. COc1ccc(C2(NCc3noc(C4CC4)n3)CCOCC2)cc1
3. Cc1csc(N2CCCN(C3Cc4ccccc4C3)CC2)n1
4. Cc1ccc(CNC(=O)NC2CCN(CC(F)F)CC2)cc1

1: 14.5; 2: -6.44; 3: 10.3; 4: -6.25

Lab note: each compound below needs its cytotoxicity at 10 µM filled in.
1. CN(Cc1ccc(F)cc1)CC1(O)CCCN(CC(C)(C)C)C1=O (stereo unspecified)
2. Cc1nc(CN2C[C@@H]3CN(C(=O)c4cnccn4)C[C@@H]3C2)cs1

1: -9.35; 2: -8.97
